Target: human MR (mineralocorticoid receptor) (Homo sapiens, UniProt P08235)
Sequence (P08235 1-984): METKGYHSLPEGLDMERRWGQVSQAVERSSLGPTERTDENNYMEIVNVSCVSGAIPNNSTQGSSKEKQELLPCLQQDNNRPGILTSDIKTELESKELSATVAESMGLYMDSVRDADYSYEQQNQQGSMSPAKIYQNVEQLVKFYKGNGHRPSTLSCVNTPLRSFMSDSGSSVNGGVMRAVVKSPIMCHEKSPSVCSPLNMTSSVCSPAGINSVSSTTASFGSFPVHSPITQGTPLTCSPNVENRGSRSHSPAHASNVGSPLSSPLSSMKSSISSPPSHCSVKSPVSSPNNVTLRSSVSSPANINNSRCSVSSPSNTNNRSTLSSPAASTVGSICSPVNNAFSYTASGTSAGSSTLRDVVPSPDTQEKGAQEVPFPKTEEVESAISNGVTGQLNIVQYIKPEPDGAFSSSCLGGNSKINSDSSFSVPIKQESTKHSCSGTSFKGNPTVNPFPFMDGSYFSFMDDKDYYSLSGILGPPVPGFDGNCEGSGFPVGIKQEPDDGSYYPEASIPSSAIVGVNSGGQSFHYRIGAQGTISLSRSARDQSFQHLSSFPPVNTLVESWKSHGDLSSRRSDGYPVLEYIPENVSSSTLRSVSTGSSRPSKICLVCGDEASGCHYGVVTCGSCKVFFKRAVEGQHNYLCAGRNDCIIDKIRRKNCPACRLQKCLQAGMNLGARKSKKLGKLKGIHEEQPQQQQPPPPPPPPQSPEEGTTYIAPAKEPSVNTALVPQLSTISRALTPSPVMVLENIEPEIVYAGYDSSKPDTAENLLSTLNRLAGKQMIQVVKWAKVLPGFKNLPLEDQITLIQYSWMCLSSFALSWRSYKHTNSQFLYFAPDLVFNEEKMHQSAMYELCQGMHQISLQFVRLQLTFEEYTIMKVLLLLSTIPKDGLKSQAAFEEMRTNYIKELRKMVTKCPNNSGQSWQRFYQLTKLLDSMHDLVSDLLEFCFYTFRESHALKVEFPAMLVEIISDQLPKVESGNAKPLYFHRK
Assay: Steroid hormone nuclear receptor binding assay (MR binding)
Conditions: HEK293 lysate overexpressing human MR, [3H]-aldosterone; individual values geometric mean of n=2
measuredQuantity: Ki

Solved cases below.
>>> recordedvalue("N#C/N=c1\\[nH]c2cc(/C=C3/c4ccc(F)cc4OCc4c(F)cccc43)ccc2n1[C@H]1C[C@@H]2COCCN2C1 [Example 23]")
"~0.23 nM"
>>> recordedvalue("CN1CCN(n2/c(=N/C#N)[nH]c3cc(/C=C4\\c5ccccc5COc5cc(F)ccc54)ccc32)CC1 [Example 8]")
"~0.08 nM"

Give the measured Ki of C[C@H](CN1CCOCC1)n1/c(=N/C#N)[nH]c2cc(/C=C3\c4ccc(F)cc4COc4cc(F)ccc43)ccc21 [Example 1] .
~0.79 nM

The reported measurements were obtained from patent US7994164B2.
